Tested on: HCT-116 colon
Test: NCI-60 one-dose screen, 48 h (100 = growth as untreated, 0 = no growth, -100 = all killed)
Conditions: 10 µM unless noted
This is part of a sample that, as a whole, favours compounds with a hit. Of some 83,000 tested, about 20% had one in any assay.
The entries below are paired with their reported growth.
Hi! Could you send only the number? It should be in %, unit omitted.

O=C1NC(=O)c2c1c1c3ccccc3ccc1c1[nH]c3ccccc3c21
14.4
Nc1nc(-c2cccc([N+](=O)[O-])c2)c(N=Nc2ccccc2Cl)s1
32.6
CCOC(=O)Nc1ccc(-c2nc(-c3cccc(O)c3)c(-c3ccnc(Br)c3)[nH]2)cc1
19.2

Documented growth of C#Cc1ccc(NC(=O)c2ccc(/C=C/C(=O)c3nccn3C)cc2)c(F)c1 : 18

So for COc1ccc([C@@H]2[C@@H](O)C(=O)N2c2cc(OC)c(OC)c(OC)c2)cc1Cl , the logged growth turned out to be 2.44

Value of measured growth for the entry CNC(=O)c1cc(Oc2ccc3nc(NC(=O)c4cccc(C(F)(F)F)c4)sc3c2)ccn1 : 94.1

The molecule listed as CCCCCCNC(=O)Oc1ccc(/C(=C(\C)c2ccc(Cl)cc2)c2ccc(OCCN(C)C)cc2)cc1 shows growth equal to 18.7

For COc1ccc(/C=N/Nc2nc(Nc3ccccc3)nc(Nc3ccc(S(N)(=O)=O)cc3)n2)cc1 the molecule record lists growth as 50.2

GET /value?item= N#Cc1c(-c2ccccc2)cc(-c2c[nH]c3ccccc23)nc1-c1c[nH]c2ccccc12 &field=growth returns 103

* * *

System: HCC-2998 colon
Assay: NCI-60 one-dose screen, 48 h (100 = growth as untreated, 0 = no growth, -100 = all killed)
Conditions: 10 µM unless noted
This is part of a sample that, as a whole, favours compounds with a hit. Of some 83,000 tested, about 20% had one in any assay. The source made the active and inactive calls. How the source made its calls: active means growth percent below 10; inactive means the rest.
Items are presented alongside their recorded growth.

Some molecules with recorded growth:
COc1ccc(Oc2ccc(C3CC(c4cc(OC)c(OC)c(OC)c4)=NN3C(C)=O)cc2)cc1 (stereo unspecified)
42.2% (inactive)
O=C(COc1cccc2cccnc12)Nc1ccc(C(=O)/C=C/c2ccc(Cl)cc2)cc1
102% (inactive)
Cc1ccc(-c2nnc3sc(C4=Cc5ccccc5OC=C4)nn23)cc1
101% (inactive)

growth on HCC-2998 colon for CC[C@]12C=CCN3CC[C@]4(C(=C(C(=O)OC)C1)Nc1cc5c(cc14)[C@@H]1[C@H](O5)[C@@H](O)[C@@]4(CC)CC(C(=O)OC)=C5Nc6cc(OC)ccc6[C@@]56CCN1[C@@H]46)[C@@H]32 is -58.7% (active)

The recorded growth with HCC-2998 colon for CS(=O)(=O)c1nccc(-c2c(-c3ccc(F)c(OCc4ccccc4)c3)nc3sccn23)n1 was 32.2% (inactive)

Bench note, HCC-2998 colon: entry Cc1ccc(NC(=O)c2cc(/C=C/C(=O)NO)cc(C(F)(F)F)c2)cc1Nc1nccc(-c2cccnc2)n1 , its growth = -0.0369% (active)

The recorded growth with HCC-2998 colon for O=S(=O)(NCCCNc1nccc(-n2cnc3ccccc32)n1)c1ccc(F)cc1 was 102% (inactive)

// molecule COc1ccc(NC(=O)[C@H](C)N)cc1C(=O)Nc1cccc(-c2cc(=O)c3c(OC)c(OC)c(OC)cc3o2)c1 , assay HCC-2998 colon, growth value: 65.2% (inactive)

Tested on HCC-2998 colon: NS(=O)(=O)c1ccc(Nc2nc(N/N=C/c3ccc(C(F)(F)F)cc3)nc(Nc3ccccc3)n2)cc1 . Observed growth: 53.1% (inactive)

Summary: Cc1cc(O)c(=O)cc2c1C[C@H]1CC(C)(C)/C=C/C[C@]3(C)Oc4cc(=O)c(O)cc(C)c4C[C@H]3C[C@H](O)[C@@]1(C)O2 , HCC-2998 colon, growth = 30.8% (inactive)

Response field growth (HCC-2998 colon) for item CCOC(=O)c1nn(-c2ccccc2)c(=O)c2c(N)c(C#N)c(-c3cccs3)cc12 : 78.2% (inactive)

Reported HCC-2998 colon growth for item N#C/C(=C\c1ccc2ccccc2c1)C(=O)Nc1sc2c(c1C#N)CCC2 was 113% (inactive)

// growth (HCC-2998 colon) for COc1cc2c3c(n(CCCN4CCCC4)c(=O)c2cc1OC)-c1cc2c(cc1C3=O)OCO2 = 42.2% (inactive)

Entry C#C[C@]1(O)CC[C@H]2[C@@H]3CC=C4c5sc(Nc6ccc(OC)nc6)nc5CC[C@]4(C)[C@H]3CC[C@@]21C ; assay system HCC-2998 colon; growth recorded at 65.5% (inactive)

* * *

Test system: PC-3 prostate
Experiment: NCI-60 one-dose screen, 48 h
Settings: 10 µM unless noted
The panel holds about 83,000 compounds, 20% with a hit somewhere; the sample as a whole holds those more often. Activity calls are given as the source filed them. Rule for the calls: active = growth percent below 10; inactive = the rest.
Answer with one of the outcomes given here: true (1) = active, false (0) = inactive

Worked examples follow.
C=CCn1c(SCC(=O)c2ccc(OC)cc2)nnc1-c1ccc(OC)cc1
false (0)
COc1ccc(Cn2cc3c(c2-c2ccccc2)CCCc2cnoc2-3)cc1[N+](=O)[O-]
false (0)
O=c1oc2ccc(-c3ccc(F)cc3F)cc2c(=O)n1-c1cccc(C(F)(F)F)c1
true (1)
COc1cc2cc(Oc3ccc(NC(=O)Nc4cc(C(F)(F)F)cc(C(F)(F)F)c4)cc3)c(C)nc2cc1OCCN(C)C
false (0)

Inquiry: Hi, sorry to bother you, what did the test record for COc1ccc(-c2oc3cc(O)cc(O)c3c(=O)c2OC)cc1O ?
Reply text: false (0)

* * *

Tested on: UO-31 renal
Assay: NCI-60 one-dose screen, 48 h
Conditions: 10 µM unless noted
The panel holds about 83,000 compounds, 20% with a hit somewhere; the sample as a whole holds those more often. Activity calls are given as the source filed them. The calls were made as follows: active = growth percent below 10; inactive = the rest.
Permitted responses: Yes for active, No for inactive

COc1ccc(-c2nc3cc(Cl)c(Cl)cc3n2CC(=O)N=Nc2c(O)[nH]c3ccc(Br)cc23)cc1
Yes

Inquiry: Status in this test for COc1ccc(Cn2cc3c(c2-c2ccccc2)CCCc2cnoc2-3)cc1 ?
Reply text: No

Inquiry: So what was the verdict on CC1OC(O[C@@H]2[C@H](O)C(CO)OC(O[C@H]3COC(O[C@H]4CC[C@]5(C)[C@H]6CC[C@]78OC[C@@]9(CCC(C)(C)C[C@H]97)[C@H](O)C[C@@]8(C)[C@]6(C)CC[C@H]5C4(C)C)[C@@H](OC4OC(CO)[C@@H](O)[C@@H](O)[C@@H]4O)[C@@H]3O)[C@H]2OC2OC[C@@H](O)[C@@H](O)[C@@H]2O)[C@@H](O)[C@@H](O)[C@H]1O (some centres not stated) in this test?
Reply text: Yes

Inquiry: Per the assay record, what outcome was assigned to O=C(CSc1ccc(-c2nc3ccccc3[nH]2)cn1)N1CCN(c2ccccc2F)CC1 ?
Reply text: No

Inquiry: Write down the call the test reported for this molecule. Item: O=C1Nc2ccc(Cl)cc2/C1=C/c1ccc(OCc2ccc(Br)cc2F)cc1
Reply text: No

Inquiry: Any idea what this test logged for Cc1cn(-c2cc(NC(=O)c3cncc(C#Cc4cnc5ccc(OCCCS(C)(=O)=O)nn45)c3)cc(C(F)(F)F)c2)cn1 ?
Reply text: No

Inquiry: Just curious, what result did COc1ccc(S(=O)(=O)NCCCNc2nccc(-n3cnc4ccccc43)n2)cc1 get here?
Reply text: No

* * *

Tested on: SK-MEL-28 melanoma
Test: NCI-60 one-dose screen, 48 h (100 = growth as untreated, 0 = no growth, -100 = all killed)
Settings: 10 µM unless noted
Compounds without any hit were thinned out: in the full panel of roughly 83,000, 20% have a hit.
Each entry below carries its recorded growth.
Please respond with the number in % and leave the unit unwritten.

CCNC(=O)Oc1ccc(/C(=C(/C)c2ccccc2)c2ccc(OCCN3CCCC3)cc2)cc1
56.2
O=C1c2c(c3c4cccnc4[nH]c3c3ccc4ccccc4c23)C(=O)N1CCN1CCNCC1
108
CN1C(=O)N(C)C2C1NN=c1s/c(=C\c3ccccn3)c(=O)n12 (stereo not drawn)
107
COc1ccc(-c2nc(SCC(C)C)nc(N/N=C\c3cccc([N+](=O)[O-])c3)c2C#N)cc1
77.7
O=C(Nc1cc(Cl)cc(Cl)c1)Nc1ccc2oc(=O)ccc2c1
9.09
COc1cc2c3c(n(CCCNC4CCCC4)c(=O)c2cc1OC)-c1cc2c(cc1C3=O)OCO2
95.8
CCOC(=O)c1c(NCC(=O)Nc2cccc(Cl)c2)sc2c1CCCC2
89.5
COc1cc(C2CC(c3ccc(Nc4nc(NCCO)nc(Nc5ccc(Cl)cc5)n4)cc3)=Nc3c(N)nc(N)nc3N2)cc(OC)c1OC (stereo not drawn)
96.4
CN1CCN(c2ccc3c(c2)nc(NNC(=O)c2ccncn2)c2cccn23)CC1
28.3
CS(=O)c1nccc(-c2c(-c3ccc(F)c(OCCc4ccc(F)cc4)c3)nc3sccn23)n1 (stereo not drawn)
64.8

Record CCc1ccc(NC(=O)N[C@@H](Cc2cccc(F)c2)C(=O)N[C@@H]2C(=O)N3CCC[C@H]3C(=O)N3CCCC[C@H]3C(=O)N[C@@H](C)C(=O)N3C[C@H](C)C[C@H]3C(=O)O[C@H]2C)c(F)c1 , field growth: 36.1

Lab book: growth of Oc1ccc(CSc2nnc(-c3ccccc3)o2)c2cccnc12 noted as 21.7

// field: growth; key: C#C[C@]1(O)CC[C@H]2[C@@H]3CC=C4c5sc(Nc6nc(C)cc(OC)n6)nc5CC[C@]4(C)[C@H]3CC[C@@]21C ; value = 21.1

Recorded result, O=C(/C=C/c1cccc(O)c1)c1ccc(O)cc1 , growth: 101

Reported growth for CCN(CC)Cc1c(-c2cccc(OC(F)(F)F)c2)[nH]c2ccc(N3CCCC3)cc2c1=O was 92.2

Note to self: growth recorded for CNC(=O)c1c(NC(=O)c2ccc(F)cc2F)sc2c1CCC(=O)C2 was 30.2

Memo: COc1cc2cc(Oc3ccc(NC(=O)Nc4cc(C(F)(F)F)cc(C(F)(F)F)c4)cc3)c(C)nc2cc1OCCN(C)C , reported growth: 110

Notebook: COc1ccc(-c2no[n+]([O-])c2Nc2ccccc2Br)cc1 , growth read as 99.8

Taken from PubChem BioAssay (NCI).
